Hello, the source for this data is PubChem BioAssay AID2765, in case you need it.

# Test system: MEF A1-2A-BIM cells, caspase 3/7 luminescence, 3 h
# test_summary: inducers of caspase signal in A1-dependent MEFs – cell-based, luminescence, retest, A1 inhibitor project, dose response (AID 2765)
Active and inactive are the calls of the source.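 The calls were made as follows: active = half-maximal concentration for the rise in caspase light signal at or below ten times the top tested dose; inconclusive = flat fit between 30% and 70% activity, or unreliable curve fit; inactive = the rest.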
Form entry, call: pick from YES = active, NO = inactive

Example entries begin here.
compound	measured_on	answer_label
COc1ccc2sc(N(CCCN(C)C)C(=O)c3ccc(S(=O)(=O)N4CCc5ccccc5C4)cc3)nc2c1	MEF A1-2A-BIM cells, caspase 3/7 luminescence, 3 h	YES
O=C(CSc1ccc2ccccc2c1)NCCc1ccc(O)c(O)c1	MEF A1-2A-BIM cells, caspase 3/7 luminescence, 3 h	NO
Cc1cc(=O)oc2c3c(cc(OCC(=O)N[C@@H](CC(C)C)C(=O)O)c12)OC(C)(C)CC3	MEF A1-2A-BIM cells, caspase 3/7 luminescence, 3 h	NO
Cc1cc(C)cc(NC(=O)CCN2CCCC2)c1	MEF A1-2A-BIM cells, caspase 3/7 luminescence, 3 h	NO
CCCc1cc(=O)oc2cc(C)cc(OCC(=O)Nc3ccc(S(N)(=O)=O)cc3)c12	MEF A1-2A-BIM cells, caspase 3/7 luminescence, 3 h	NO

Hey, what did the test say about Cc1ccc(N=C2C(=O)Nc3ccc(C)c(Br)c32)cc1 ?
NO

Hey, what did the test say about C=C(C(=O)Oc1ccccc1C(C)(C)C)c1ccccc1 ?
YES

Hey, what did the test say about CCOc1ccc(OCc2ccc(C(=O)NN=Cc3ccc[nH]3)cc2)cc1 ?
NO

Hey, what did the test say about Cc1cc(C)cc(C(=O)N2CC(=O)Nc3ccccc32)c1 ?
NO

---

# Test system: MEF A1-2A-BIM cells, caspase 3/7 luminescence, 3 h
# test_summary: inducers of caspase signal in A1-dependent MEFs – cell-based, luminescence, retest, A1 inhibitor project, dose response (AID 2765)
Active and inactive are the calls of the source.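 The calls were made as follows: active = half-maximal concentration for the rise in caspase light signal at or below ten times the top tested dose; inconclusive = flat fit between 30% and 70% activity, or unreliable curve fit; inactive = the rest.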
Form entry, call: pick from t (active), f (inactive)

compound	answer_label
COc1ccc(Nc2cc3n(c(=O)n2)CCc2cc(OC)c(OC)cc2-3)c(C)c1	f
Nc1nc(Cl)nc2c1ncn2[C@H]1C[C@H](O)[C@@H](CO)O1	f
CCN(C(=O)CSc1nc2ccccc2n1CC)C1CCS(=O)(=O)C1 (stereo not given)	f

Hey, what did the test say about CC(=O)Nc1ccc(S(=O)(=O)NCCc2ccccn2)cc1 ?
f

Hey, what did the test say about Cc1ccc(NC(=O)CSc2nnc(C)n2-c2ccccc2)cc1 ?
f

Hey, what did the test say about CCn1c(CNc2ccc(F)cc2)nnc1SCC(=O)Nc1ccccc1OC ?
f

Hey, what did the test say about COc1ccc(-c2ccc3c(c2)S(=O)(=O)c2cccc(C(=O)NCCOc4ccccc4)c2C3=O)cc1OC ?
f

Hey, what did the test say about CC(C)NCC(O)c1ccc(NS(C)(=O)=O)cc1 (stereo not given) ?
f

Hey, what did the test say about CC(C)CN(C(=O)C1CSC2(C)CCC(=O)N12)c1c(N)n(Cc2ccccc2)c(=O)[nH]c1=O (stereo not given) ?
f

Hey, what did the test say about CCOc1ccc2nc(NCCNC(=O)Nc3cccc(C)c3)c(C#N)cc2c1 ?
t

---

# System: MEF A1-2A-BIM cells, caspase 3/7 luminescence, 3 h
# test_summary: inducers of caspase signal in A1-dependent MEFs – cell-based, luminescence, retest, A1 inhibitor project, dose response (AID 2765)
Calls of active or inactive are those of the source.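 Rule for the calls: active = half-maximal concentration for the rise in caspase light signal at or below ten times the top tested dose; inconclusive = flat fit between 30% and 70% activity, or unreliable curve fit; inactive = the rest.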
Form entry, call: pick from yes (active), no (inactive)

Example entries begin here.
CC(=O)c1ccc(N2CCN(S(=O)(=O)c3c(C(=O)N4CCCC4)c(C)n(C)c3C)CC2)cc1 no
Cc1cc(C)c(C(=O)COC(=O)C2CCN(c3ccc(C(F)(F)F)cn3)CC2)cc1C no
O=C(CCCCCn1c(=O)[nH]c2ccsc2c1=O)N1CCN(C2CCCCC2)CC1 no
Cc1cccc[n+]1CC(=O)c1ccccc1 no
Oc1cc2c(cc1CN1CCN(c3ncccn3)CC1)OCO2 no

Hey, what did the test say about COc1cccc(C(=O)NCC(=O)N/N=C/c2ccc(OC(=O)c3cccs3)c(OC)c2)c1 ?
no

Hey, what did the test say about Cc1c(CCCC(=O)O)sc(N)c1C(=O)c1cccc(C(F)(F)F)c1 ?
no

Hey, what did the test say about CCN(CC(=O)Nc1c(F)cccc1F)C(=O)/C=C/c1ccc(C)cc1 ?
no

Hey, what did the test say about COc1ccc2cc(C)c3nnc(SCC(=O)Nc4nc(-c5ccc(F)cc5)cs4)n3c2c1 ?
yes

Hey, what did the test say about CCC(=O)N/C(N)=N/c1nc(C)c2cc(C)c(C)cc2n1 ?
no

---

# Test system: MEF A1-2A-BIM cells, caspase 3/7 luminescence, 3 h
# test_summary: inducers of caspase signal in A1-dependent MEFs – cell-based, luminescence, retest, A1 inhibitor project, dose response (AID 2765)
Activity calls are given as the source filed them.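 How the source made its calls: active means half-maximal concentration for the rise in caspase light signal at or below ten times the top tested dose; inconclusive means flat fit between 30% and 70% activity, or unreliable curve fit; inactive means the rest.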
reported_property: EC50

molecule	EC50
COc1cc(/C=C/C(=O)c2ccc([N+](=O)[O-])o2)ccc1O	> 35 µM (inactive)

The molecule listed as COc1ccc(CNCc2ccc([N+](=O)[O-])cc2)cc1OC has a reported EC50 of > 35 µM (inactive)

The molecule listed as CCc1ccccc1NC(=O)C(CC)Sc1nc2cc3c(cc2c(=O)n1Cc1ccco1)OCO3 (stereo unspecified) has a reported EC50 of > 35 µM (inactive)

The molecule listed as O=C(NCCc1ccc(Cl)cc1)C1CCCN(S(=O)(=O)N2CCCCCC2)C1 (stereo unspecified) has a reported EC50 of > 35 µM (inactive)

The molecule listed as Cn1c(SCc2ccccc2)nc(N)c(N=O)c1=O has a reported EC50 of > 35 µM (inactive)

The molecule listed as CC(=O)c1ccc(NC(=O)CO/N=C(\C)c2cccs2)cc1 has a reported EC50 of > 35 µM (inactive)

The molecule listed as CCN(CC)c1ccc2c(c1)oc(=O)c1c(Cl)cc(=O)oc12 has a reported EC50 of > 35 µM (inactive)

The molecule listed as COc1ccccc1CNC(=O)COc1ccc([N+](=O)[O-])cc1 has a reported EC50 of > 35 µM (inactive)

The molecule listed as CCCCN1C(=O)C(NC(C)=O)c2cc(Br)ccc21 (stereo unspecified) has a reported EC50 of > 35 µM (inactive)

The molecule listed as Cc1cc(NC(=O)COC(=O)C2=NN(c3ccccc3)C(=O)CC2)c([N+](=O)[O-])cc1C has a reported EC50 of > 35 µM (inactive)

The molecule listed as COC(=O)CCC(=O)c1ccc(OC)c(Cl)c1 has a reported EC50 of > 35 µM (inactive)

---

Consider the following compounds and their measured EC50 readings.
# Tested on: MEF A1-2A-BIM cells, caspase 3/7 luminescence, 3 h
# test_summary: inducers of caspase signal in A1-dependent MEFs – cell-based, luminescence, retest, A1 inhibitor project, dose response (AID 2765)
Active and inactive are the calls of the source.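 Rule for the calls: active = half-maximal concentration for the rise in caspase light signal at or below ten times the top tested dose; inconclusive = flat fit between 30% and 70% activity, or unreliable curve fit; inactive = the rest.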

// worked examples, EC50 included
Cc1ccc(NC(=O)CSc2nc3ccc(Nc4nc(N5CCOCC5)nc(N5CCOCC5)n4)cc3s2)cc1 14.9 µM
CC(C)(C)c1ccc(C(=O)Nc2ccc(O)c3c(=O)cc(-c4cccc(Cl)c4)oc23)cc1 > 35 µM (inactive)
CC(C)(C)OC(=O)NCCc1nnc(S(=O)(=O)Cc2ccc(Cl)cc2Cl)o1 > 35 µM (inactive)
CCc1ccccc1NC(=O)CN(C)C(=O)Cn1ncc(Cl)c(Cl)c1=O > 35 µM (inactive)

Switching to the query record.
The compound listed as O=C(O)c1cc(-c2ccc(Cl)cc2)n(-c2cccc(Cl)c2)n1 has a reported EC50 of > 35 µM (inactive)

---

# Tested on: MEF A1-2A-BIM cells, caspase 3/7 luminescence, 3 h
# test_summary: inducers of caspase signal in A1-dependent MEFs – cell-based, luminescence, retest, A1 inhibitor project, dose response (AID 2765)
Calls of active or inactive are those of the source.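 The calls were made as follows: active = half-maximal concentration for the rise in caspase light signal at or below ten times the top tested dose; inconclusive = flat fit between 30% and 70% activity, or unreliable curve fit; inactive = the rest.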
Form entry, call: pick from y = active, n = inactive

Example entries begin here.
compound	answer_label
CNC(=O)Nc1ccc(Cn2cc(C(F)(F)F)ccc2=O)cc1	n
CC(C)[C@H]1CN=C2N(CCNC(=O)CCC3CCCCC3)[C@H](Cc3ccc(O)cc3)CN21	n
CCc1cc(C(=O)OCC(=O)N2CCC(c3ccccc3)=N2)sc1C	n
COc1ccc(C(O)Cc2nccn2C)cc1 (stereo not given)	n
O=C1C(=O)N(C/C=C/c2ccccc2)c2ccccc21	n

Attention now turns to another entry.
Hey, what did the test say about COc1ccc(-n2ncc3c2CC(C)(C)CC3NC(=O)Cc2nonc2C)cc1 (stereo not given) ?
n

---

# Tested on: MEF A1-2A-BIM cells, caspase 3/7 luminescence, 3 h
# test_summary: inducers of caspase signal in A1-dependent MEFs – cell-based, luminescence, retest, A1 inhibitor project, dose response (AID 2765)
Activity calls are given as the source filed them.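 The calls were made as follows: active = half-maximal concentration for the rise in caspase light signal at or below ten times the top tested dose; inconclusive = flat fit between 30% and 70% activity, or unreliable curve fit; inactive = the rest.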
Form entry, call: pick from active, inactive

Example entries begin here.
molecule	answer_label
CNC(C)C(=O)NC(C(=O)N1CCCC1C(=O)NC1CCCc2ccccc21)C(C)C (configuration not stated)	inactive
CCOC(=O)CSC1=N/C(=C/c2ccc(-n3cncn3)cc2)C(=O)N1C(C)=O	active
COc1ccccc1N1C(=O)c2cccc3c(Cl)ccc(c23)C1=O	inactive
CCOC(=O)Nc1nc(-c2ccccc2)c(C(=O)c2ccccc2)s1	inactive
Cc1ccc(CSc2ncnc3c2cnn3-c2ccccc2)cc1	inactive

Hey, what did the test say about CCOc1cc2[nH]c(=S)n(CCCOC)c(=O)c2cc1OCC ?
inactive

Hey, what did the test say about Cc1cc(=O)[nH]c(SCC(=O)Nc2ccc(Br)cc2)c1C#N ?
inactive

Hey, what did the test say about CCOC(=O)CSCC(=O)N1N=C(c2cccs2)CC1c1ccc(F)cc1 (configuration not stated) ?
inactive

Hey, what did the test say about O=C(NNc1cc(Br)c(O)c(Br)c1)c1ccccc1 ?
inactive

Hey, what did the test say about COc1cc(NC(=O)c2ccc(C)cc2C)ccc1NC(=O)c1cc2ccccc2o1 ?
active

Hey, what did the test say about COc1cc2c(cc1OC)C(c1ccccc1Br)NC(=O)C2 (configuration not stated) ?
inactive

Hey, what did the test say about Cc1ccc(S(=O)(=O)CC#CCOC(=O)c2ccc([N+](=O)[O-])cc2)cc1 ?
inactive

Hey, what did the test say about CN(CC(=O)Nc1cccc2ccccc12)C(=O)c1ccc(NC(=O)CC#N)cc1 ?
inactive
